assay: LUCIDITY trial: plasma HMT/MT levels; type: in vivo; conditions: human, oral, all dosing arms pooled, sub-group BLLOQ (values set to zero), 1 h post-dose, read-out: Mean value HMT conc
ENDPOINT LABEL: concentration at 1 h (ng/mL)

compound="CN(C)c1ccc2c(c1)Sc1cc(N(C)C)ccc1N2 [HMT]" endpoint_label="concentration at 1 h" reported_measurement=0

###

assay: LUCIDITY trial: plasma HMT/MT levels; assay type: in vivo; conditions: human, oral, 16 mg/day, 16 mg/day LMTM arm, sub-group ultralow, steady state 1 h post-dose, read-out: Mean HMT conc
ENDPOINT LABEL: concentration at 1 h (ng/mL)

smiles_notation=CN(C)c1ccc2c(c1)Sc1cc(N(C)C)ccc1N2.CS(=O)(=O)O.CS(=O)(=O)O reported_measurement=0.02

###

test: LUCIDITY trial: plasma HMT/MT levels; format: in vivo; details: human, oral, 16 mg/day, 16 mg/day LMTM arm, sub-group BLLOQ (set to zero), steady state 1 h post-dose, read-out: Mean HMT conc
ENDPOINT LABEL: concentration at 1 h

compound="CN(C)c1ccc2c(c1)Sc1cc(N(C)C)ccc1N2.CS(=O)(=O)O.CS(=O)(=O)O [LMTM]" endpoint_label="concentration at 1 h" reported_measurement="0 ng/mL"

###

Assay: LUCIDITY trial: plasma HMT/MT levels
Format: in vivo
Details: human, oral, 8 mg/day, 8 mg/day LMTM arm, sub-group mid, steady state 1 h post-dose, read-out: Mean HMT conc
Description: At Visits 2, 3, 7 and 10, timed morning blood samples are collected for determination of plasma level of the drug. Samples are collected prior to dosing and then at 1, 2, and 4 hours post dose. […] Blood may also be analyzed for other biomarkers for possible future research related to determination of potential biomarker predictors or surrogates for treatment response, to be described in a separate protocol. […]
ENDPOINT LABEL: concentration at 1 h (ng/mL)

smiles_notation=CN(C)c1ccc2c(c1)Sc1cc(N(C)C)ccc1N2.CS(=O)(=O)O.CS(=O)(=O)O reported_measurement=0.05

###

assay: LUCIDITY trial: plasma HMT/MT levels; type: in vivo; settings: human, oral, all dosing arms pooled, sub-group high, 1 h post-dose, read-out: Mean value HMT conc
ENDPOINT LABEL: concentration at 1 h (ng/mL)

smiles_notation=CN(C)c1ccc2c(c1)Sc1cc(N(C)C)ccc1N2 endpoint_label="concentration at 1 h" reported_measurement=0.41

###

experiment: LUCIDITY trial: plasma HMT/MT levels; format: in vivo; conditions: human, oral, 16 mg/day, 16 mg/day LMTM arm, sub-group mid, steady state 1 h post-dose, read-out: Mean HMT conc
ENDPOINT LABEL: concentration at 1 h (ng/mL)

smiles_notation=CN(C)c1ccc2c(c1)Sc1cc(N(C)C)ccc1N2.CS(=O)(=O)O.CS(=O)(=O)O reported_measurement=0.04

###

test: LUCIDITY trial: plasma HMT/MT levels; format: in vivo; conditions: human, oral, 16 mg/day, 16 mg LMTM/day group, week 4, 1h post dose, read-out: overall mean plasma concentration
ENDPOINT LABEL: concentration at 1 h (ng/mL)

smiles_notation=CN(C)c1ccc2c(c1)Sc1cc(N(C)C)ccc1N2.CS(=O)(=O)O.CS(=O)(=O)O endpoint_label="concentration at 1 h" unit_abbrev=ng/mL reported_measurement=0.5
